Reported values of reduction in the amount of ABD cosedimenting with F-actin compared to αEcat-ABD-WT for individual entries
# tested.target: filamentous actin (F-actin) from rabbit skeletal muscle (rabbit, UniProt P68135 1-377)
# assay.comment: co-sedimentation; actin cosedimentation at high RCF: 5 μM ABD and 5 μM actin in 50 μL Buffer-F, 1 h at RT, Airfuge ≥100,000×g 20 min at RT; supernatant and pellet by SDS-PAGE with coomassie, band intensity by ImageJ
# setup.conditions: both partners purified
Be sure to follow the number with its unit.

binder	reported.measurement
αEcat-ABD I792A (domain or fragment, source: E. coli BL21-CodonPlus, purified (glutathione-sepharose, thrombin cleavage, Superdex 75); not shown: GST, N-terminal, cleaved) SRTSVQTEDDQLIAGQSARAIMAQLPQEQKAKIAEQVASFQEEKSKLDAEVSKWDDSGNDIIVLAKQMCMIMMEMTDFTRGKGPLKNTSDVISAAKKIAEAGSRMDKLGRTIADHCPDSACKQDLLAYLQRIALYCHQLNACSKVKAEVQNLGGELVVSGVDSAMSLIQAAKNLMNAVVQTVKASYVASTKYQKSQGMASLNLPAVSWKMKAPEKKPLVKREKQDETQTKIKRASQKKHVNPVQALSEFKAMDSI	36%
αEcat-ABD L785A (domain or fragment, source: E. coli BL21-CodonPlus, purified (glutathione-sepharose, thrombin cleavage, Superdex 75); not shown: GST, N-terminal, cleaved) SRTSVQTEDDQLIAGQSARAIMAQLPQEQKAKIAEQVASFQEEKSKLDAEVSKWDDSGNDIIVLAKQMCMIMMEMTDFTRGKGPLKNTSDVISAAKKIAEAGSRMDKLGRTIADHCPDSACKQDLLAYLQRIAAYCHQLNICSKVKAEVQNLGGELVVSGVDSAMSLIQAAKNLMNAVVQTVKASYVASTKYQKSQGMASLNLPAVSWKMKAPEKKPLVKREKQDETQTKIKRASQKKHVNPVQALSEFKAMDSI	75%

Here is another binder to look at.
Reported reduction in the amount of ABD cosedimenting with F-actin compared to αEcat-ABD-WT, binder αEcat-ABD V796A (domain or fragment, source: E. coli BL21-CodonPlus, purified (glutathione-sepharose, thrombin cleavage, Superdex 75); not shown: GST, N-terminal, cleaved) SRTSVQTEDDQLIAGQSARAIMAQLPQEQKAKIAEQVASFQEEKSKLDAEVSKWDDSGNDIIVLAKQMCMIMMEMTDFTRGKGPLKNTSDVISAAKKIAEAGSRMDKLGRTIADHCPDSACKQDLLAYLQRIALYCHQLNICSKAKAEVQNLGGELVVSGVDSAMSLIQAAKNLMNAVVQTVKASYVASTKYQKSQGMASLNLPAVSWKMKAPEKKPLVKREKQDETQTKIKRASQKKHVNPVQALSEFKAMDSI : ____
47%

Where do these numbers come from? They come from paper PMC6269467.
